Test system: Staphylococcus aureus
ASSAY SUMMARY: Antibacterial activity against Staphylococcus aureus SA1199B over-expressing NorA by MTT dye based assay
Format: functional
In this section, each of the molecules is paired with its reported MIC.

> print(dat)
                                chem.smiles  measurement.name    obs.value
1  CCCCCCCCCCCCCCCCCCOc1cc(O)cc(O)c1C(=O)[C@@H](C)CC               MIC  > 512 µg/mL

Returns the measured MIC for the input molecule. Input: CCCCCCCCOc1cc(O)cc(O)c1C(=O)[C@@H](C)CC
0.25 to 0.5 µg/mL

Returns the measured MIC for the input molecule. Input: CCCCCCCCCCCCCCCCCC(=O)c1c(O)cc(O)cc1OC/C=C(\C)CCC=C(C)C
> 512 µg/mL
